| COMPOUND | melting point |
| --- | --- |
| CCS(=O)(=O)NCCOc1ccc2c(C#N)c(-c3ccc(NC(=O)OC(C)C4CC4)cc3)n(C3CCC3)c2c1 (stereo not shown) [Compound 3229] | 88 to 91 °C |
| CC(C)Nc1ccc(-c2c(C#N)c3ccc(Oc4ncccc4Cl)cc3n2C2CC2)cc1 [Compound 2951] | 196 to 197 °C |
| CCCS(=O)(=O)Nc1ccc(-c2c(C#N)c3ccc(Oc4ncccc4F)cc3n2C2CC2)cc1 [Compound 2956] | 198 to 200 °C |
| CC(C)OC(=O)Nc1ccc(-c2c(C#N)c3ccc(OCS(C)(=O)=O)cc3n2C2CCCC2)cc1 [Compound 3067] | 265 to 271 °C |

====

| ITEM SMILES | melting point |
| --- | --- |
| CC(C)n1c(-c2ccc(N3CCCCS3(=O)=O)cc2)c(C#N)c2ccc(N3CCOCC3)cc21 | 260 to 271 °C |
| CCCS(=O)(=O)Nc1ccc(-c2c(C#N)c3ccc(Oc4nccnc4Cl)cc3n2C2CC2)cc1 | 183 to 184 °C |
| C[C@@H](OC(=O)Nc1ccc(-c2c(C#N)c3ccc(OCCCS(C)(=O)=O)cc3n2C2CCC2)cc1)C(F)(F)F | 206 to 208 °C |
| Cc1cccn(-c2ccc3c(C#N)c(-c4ccc(NS(=O)(=O)CC(C)C)cc4)n(C4CCC4)c3c2)c1=O | 290 to 291 °C |

====

Reported melting point values are given for each entry in this list.
METRIC NAME: melting point

| ITEM SMILES | READING |
| --- | --- |
| CC(C)NC(=O)Oc1ccc(-c2c(C#N)c3ccc(OC4CCOCC4)cc3n2C2CCC2)cc1 | 185 to 186 °C |
| N#Cc1c(-c2ccc(N3CCCCS3(=O)=O)cc2)n(C2CCC2)c2cc(Oc3cnccn3)ccc12 | 187 to 196 °C |
| N#Cc1c(-c2ccc(OC(=O)N3CCCC3)cc2)n(C2CCC2)c2cc(OC3CCOCC3)ccc12 | 179 to 181 °C |
| CCn1c(-c2cccc(NC(=O)N3CCN(C)CC3)c2)c(C#N)c2ccc(OC)cc21 | 108 to 120 °C |

====

| COMPOUND | melting point |
| --- | --- |
| N#Cc1c(-c2cnc(NC3CCC3)nc2)n(C2CCC2)c2cc(Oc3ncccn3)ccc12 | 237 to 238 °C |
| CC(C)OC(=O)Nc1ccc(-c2c(C#N)c3ccc(OCCSc4ncccn4)cc3n2C2CCC2)cc1 | 69 to 72 °C |
| N#Cc1c(-c2ccc(N3CCCCS3(=O)=O)cc2)n(C2CC2)c2cc(Oc3ncccn3)ccc12 | 251 to 256 °C |
| CCCS(=O)(=O)Nc1ccc(-c2c(C#N)c3ccc(OCCCN4C(=O)CN(C)C4=O)cc3n2C2CCC2)cc1 | 178 to 179 °C |
| CCCS(=O)(=O)Nc1ccc(-c2c(C#N)c3ccc(N4CCN(CC5CC5)CC4)cc3n2CC)cc1 | 173 to 174 °C |
| N#Cc1c(-c2ccc(NC(=O)OC3CCC3)cc2)n(C2CCC2)c2cc(OC3CCOC3)ccc12 (stereo not drawn) | 183 to 184 °C |
| CC(OC(=O)Nc1ccc(-c2c(C#N)c3ccc(OC4CCOCC4)cc3n2C2CC2)cc1)C1CC1 (stereo not drawn) | 130 to 133 °C |
| N#Cc1c(-c2ccc(NC(=O)OC(C(F)(F)F)C(F)(F)F)cc2)n(C2CCC2)c2cc(OCC3OCCO3)ccc12 | 202 to 205 °C |
| C[C@H](NC(=O)Nc1ccc(-c2c(C#N)c3ccc(Oc4ncccn4)cc3n2C2CCC2)cc1)c1ccc(F)cc1 | 152 °C (dec.) |
| CC(=O)c1cccc(Nc2ccc(-c3c(C#N)c4ccc(OC5CCOCC5)cc4n3C3CCC3)cc2)c1 | 148 to 152 °C |
| CCS(=O)(=O)Nc1ccc(-c2c(C#N)c3ccc(N4CCCCC4)cc3n2C2CCC2)cc1 | 203 to 205 °C |
| CCCS(=O)(=O)Nc1ccc(-c2c(C#N)c3ccc(N4CCOCC4)cc3n2C2CCC2)cc1 [Compound 3013] | 176 to 179 °C |
| CCCS(=O)(=O)Nc1ccc(-c2c(C#N)c3ccc(Oc4nccnc4C#N)cc3n2CC2CC2)c(Cl)c1 | 243 to 246 °C |
| N#Cc1c(-c2ccc(NCc3ccccc3F)cc2)n(C2CCC2)c2cc(OC3CCOCC3)ccc12 | 180 to 181 °C |
| Cc1ccnc(Oc2ccc3c(C#N)c(-c4ccc(Nc5cc(C)nn5C)cc4)n(C4CCC4)c3c2)n1 | 166 to 168 °C |

====

METRIC NAME: melting point

| MOLECULE | READING |
| --- | --- |
| CCCS(=O)(=O)Nc1ccc(-c2c(C#N)c3ccc(-c4c(C)noc4C)cc3n2C2CCC2)cc1 | 224 to 225 °C |
| CCN(CC)C(=O)c1ccc2c(C#N)c(-c3ccc(NC(=O)O[C@H](C)C4CC4)cc3)n(C3CCC3)c2c1 | 166 to 168 °C |
| CC(C)OC(=O)Nc1ccc(-c2c(C#N)c3ccc(OC4CCS(=O)(=O)CC4)cc3n2C2CC2)cc1 | 278 to 282 °C |
| N#Cc1c(-c2ccc(Nc3ccc(F)c(C(F)(F)F)c3)cc2)n(C2CCC2)c2cc(OC3CCOCC3)ccc12 | 168 to 169 °C |
| Cc1cccc(-c2ccc3c(C#N)c(-c4ccc(NC(=O)O[C@H](C)C5CC5)cc4)n(C4CCC4)c3c2)c1 | 112 to 117 °C |
| Cc1cc(NC(=O)O[C@H](C)C2CC2)ccc1-c1c(C#N)c2ccc(Oc3nccnc3C#N)cc2n1C1CCC1 | 108 to 116 °C |
| CCn1nnc(COc2ccc3c(C#N)c(-c4ccc(NC(=O)OC(C)C)cc4)n(C4CCC4)c3c2)n1 | 184 to 190 °C |
| CCCS(=O)(=O)Nc1ccc(-c2c(C#N)c3ccc(Oc4ncccc4C(C)=O)cc3n2C2CCC2)cc1 | 191 to 194 °C |
| CC(C)OC(=O)Nc1ccc(-c2c(C#N)c3ccc(OCC(O)Cn4cncn4)cc3n2C2CCC2)cc1 (stereo not drawn) | 209 to 215 °C |
| C[C@@H](NC(=O)Nc1ccc(-c2c(C#N)c3ccc(Oc4ncccn4)cc3n2C2CCC2)cc1)c1ccc(F)cc1 | 150 °C (dec.) |
| CCCS(=O)(=O)Nc1ccc(-c2c(C#N)c3ccc(Oc4ncccc4Br)cc3n2CC2CC2)c(C)c1 | 110 to 113 °C |
| CC(C)Nc1ncc(-c2c(C#N)c3ccc(Oc4ncccn4)cc3n2C2CCC2)cn1 | 213 to 215 °C |
| COCCOc1ccc2c(C#N)c(-c3ccc(NS(=O)(=O)C4CC4)cc3)n(C3CCC3)c2c1 | 192 to 193 °C |
| CCOCCOc1ccc2c(C#N)c(-c3ccc(NC(=O)OC(C)C4CC4)cc3)n(C3CCC3)c2c1 (stereo not drawn) | 141 to 142 °C |
| CCCS(=O)(=O)Nc1ccc(-c2c(C#N)c3cc(C(=O)N(C)CC)ccc3n2C2CCC2)cc1 | 138 to 139 °C |

====

# reported melting point; entries follow

| COMPOUND | melting point |
| --- | --- |
| CCOc1ccc2c(C#N)c(-c3ccc(NC(=O)O[C@H](C)C(F)(F)F)cc3)n(C3CCC3)c2c1 | 196 to 199 °C |
| N#Cc1c(-c2ccc(N3CCCS3(=O)=O)cc2)n(C2CCC2)c2cc(OC3CCOCC3)ccc12 | 224 to 226 °C |
| C[C@@H](OC(=O)Nc1ccc(-c2c(C#N)c3ccc(Oc4nccnc4C#N)cc3n2C2CC2)cc1)C1CC1 | 223 °C (dec.) |
| COc1ccnc(Oc2ccc3c(C#N)c(-c4ccc(NS(=O)(=O)CC(C)C)cc4)n(C4CCC4)c3c2)n1 | 182 to 186 °C |
| C[C@@H](OC(=O)Nc1ccc(-c2c(C#N)c3ccc(Oc4ncccn4)cc3n2C2CCC2)cc1)c1ccc(F)cc1 | 173 to 175 °C |
| CCN(CC)C(=O)c1ccc2c(C#N)c(-c3ccc(NS(=O)(=O)C4CC4)cc3)n(C3CCC3)c2c1 | 205 to 207 °C |
| CC(OC(=O)Nc1ccc(-c2c(C#N)c3ccc(OCCNS(C)(=O)=O)cc3n2C2CCC2)cc1)C1CC1 (stereo not shown) | 92 to 95 °C |

====

We begin with a simple list: items and their reported melting point.
METRIC NAME: melting point

| ITEM SMILES | METRIC NAME | READING |
| --- | --- | --- |
| N#Cc1c(-c2ccc(Nc3ccccc3Cl)cc2)n(C2CCC2)c2cc(OC3CCOCC3)ccc12 | melting point | 125 to 128 °C |
| CCCS(=O)(=O)Nc1ccc(-c2c(C#N)c3ccc(Oc4ncccc4C#N)cc3n2CC2CC2)cc1 | melting point | 232 to 235 °C |
| CC(C)(C)OC(=O)Nc1ccc(-c2c(C#N)c3ccc(N4CCOCC4)cc3n2C2CCC2)cc1 | melting point | 218 to 220 °C |
| Cc1csc(Nc2ccc(-c3c(C#N)c4ccc(Oc5ncccc5F)cc4n3C3CC3)cc2)n1 | melting point | 193 to 195 °C |

All figures here come from patent US7772271B2.
